- Measurement target: Tau
- Test: rat primary cortical neurons, FLIPR, 25 uM ASO
Bases are written 5' to 3'; sugars and linkages follow in the same order, as letters with counts (s phosphorothioate, o phosphodiester; PS: all linkages phosphorothioate). The collection does not say whether C is 5-methylated. l = locked nucleic acid (LNA); d = 2'-deoxy (DNA)
Listed sequences paired with reported calcium oscillation score
Measure: calcium oscillation score

biopolymer_sequence="CATCCATTTTCTGACTC (sugars l4 d11 l2, PS)" reported="52 % of control"
biopolymer_sequence="CTGCCGGTGGAGGAGA (sugars l3 d10 l3, PS)" reported="0 % of control"
biopolymer_sequence="TTGGAGCCTACATAGA (sugars l3 d10 l3, PS)" reported="0 % of control"
biopolymer_sequence="ATCACTGATTTTGAAGTCCC (sugars l5 d10 l5, PS)" reported="≥ 200 % of control"
biopolymer_sequence="TTTATTTCCAAATTCACTTT (sugars l5 d10 l5, PS)" reported="≥ 200 % of control"
biopolymer_sequence="CACTGTTACACATTTAT (sugars l4 d9 l4, PS)" reported="68 % of control"
biopolymer_sequence="CAATTTGGAAAGATGAAATT (sugars l3 d14 l3, PS)" reported="3.89 % of control"
biopolymer_sequence="CCCAGCGTGATCTTCCATCA (sugars lldllddddddddddlldll, PS)" reported="100 % of control"
biopolymer_sequence="CTTTATTTCCAAATTCACT (sugars l3 d11 l2 d1 l2, PS)" reported="116 % of control"
biopolymer_sequence="TAAAGTCCCAGGTCT (sugars l3 d9 l3, PS)" reported="124 % of control"
biopolymer_sequence="TTCTTCCTTTGTAATTCC (sugars l3 d13 l2, PS)" reported="39.6 % of control"
biopolymer_sequence="TCTCTGCTTACAAAATC (sugars l4 d9 l4, PS)" reported="66.8 % of control"
biopolymer_sequence="TCACAAACCCTGCTTGGCCA (sugars l3 d14 l3, PS)" reported="27.6 % of control"
biopolymer_sequence="TAATTCCCAAATTCCTCATA (sugars l2 d14 l4, PS)" reported="53.9 % of control"
biopolymer_sequence="CCTACTTTATTCCCTTAA (sugars l2 d12 l4, PS)" reported="86.8 % of control"
biopolymer_sequence="ACCCATCCCACAAAGAACAG (sugars l3 d14 l3, PS)" reported="34.2 % of control"
biopolymer_sequence="AATAAGAAAGGAACGC (sugars l3 d10 l3, PS)" reported="110 % of control"
biopolymer_sequence="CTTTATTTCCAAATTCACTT (sugars l2 d1 l1 d13 l3, PS)" reported="132 % of control"
biopolymer_sequence="ATTAACATATTTTTACCTA (sugars l4 d11 l4, PS)" reported="65.3 % of control"
biopolymer_sequence="CTCAACATTACCCTTAAATA (sugars l4 d14 l2, PS)" reported="57.6 % of control"
biopolymer_sequence="CCAGCGTGATCTTCCATCAC (sugars l4 d11 l5, PS)" reported="124 % of control"
biopolymer_sequence="CCATCAATTTCCCTGT (sugars l2 d10 l4, PS)" reported="56.3 % of control"
biopolymer_sequence="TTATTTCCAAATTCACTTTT (sugars l1 d17 l2, PS)" reported="166 % of control"
biopolymer_sequence="TCTTCATTCTTGCCCA (sugars l2 d12 l2, PS)" reported="38.1 % of control"
biopolymer_sequence="CGTGATCTTCCATC (sugars l3 d8 l3, PS)" reported="85.1 % of control"
biopolymer_sequence="GTGATGCAGGAGTTGT (sugars l3 d10 l3, PS)" reported="13.5 % of control"
biopolymer_sequence="ATTTCTCTAATTGTCCA (sugars l4 d10 l3, PS)" reported="46.8 % of control"
biopolymer_sequence="CCTCTTCCACTACAAGCT (sugars l2 d14 l2, PS)" reported="49.1 % of control"
biopolymer_sequence="CTCTTATCTTTGTTTCTA (sugars l4 d12 l2, PS)" reported="51.1 % of control"
biopolymer_sequence="CTCGTCAGCTAGCGTG (sugars l3 d10 l3, PS)" reported="27.1 % of control"
biopolymer_sequence="GAGTTTGTGCAAGGTC (sugars l3 d10 l3, PS)" reported="0 % of control"
biopolymer_sequence="ACCATCATACTCCAAGT (sugars l3 d12 l2, PS)" reported="77.7 % of control"
biopolymer_sequence="TAACCAATTAACCGAA (sugars l3 d10 l3, PS)" reported="179 % of control"
biopolymer_sequence="GCGAGTCTACCATGTC (sugars l3 d10 l3, PS)" reported="76 % of control"
biopolymer_sequence="TTAGCCCTAAAGTCCC (sugars l3 d10 l3, PS)" reported="28.6 % of control"
biopolymer_sequence="TATTTATTCTTTTTATTATT (sugars l4 d12 l4, PS)" reported="58.6 % of control"
biopolymer_sequence="TATTTCCAAATTCACTTTTA (sugars l4 d10 l1 d2 l3, PS)" reported="127 % of control"
biopolymer_sequence="TCATCTTTTCTAGAACCC (sugars l3 d13 l2, PS)" reported="48.4 % of control"
biopolymer_sequence="TTAGACCACATTTCCAT (sugars l3 d11 l3, PS)" reported="96 % of control"
biopolymer_sequence="CGCTTCCAGTCCCGTC (sugars l3 d10 l3, PS)" reported="15.7 % of control"

* * *

- Measurement target: Tau
- Test: rat primary cortical neurons, FLIPR, 25 uM ASO
Bases are written 5' to 3'; sugars and linkages follow in the same order, as letters with counts (s phosphorothioate, o phosphodiester; PS: all linkages phosphorothioate). The collection does not say whether C is 5-methylated. l = locked nucleic acid (LNA); d = 2'-deoxy (DNA)
Measure: calcium oscillation score

biopolymer_sequence="TTAACTCAAATCAATTCTCA (sugars l4 d12 l4, PS)" reported="62 % of control"
biopolymer_sequence="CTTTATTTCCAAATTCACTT (sugars l2 d1 l1 d12 l4, PS)" reported="44.7 % of control"
biopolymer_sequence="TCCTGGTTTATGATGG (sugars l3 d10 l3, PS)" reported="2.3 % of control"
biopolymer_sequence="AGCTTCCACATTTTACA (sugars l3 d12 l2, PS)" reported="63.8 % of control"
biopolymer_sequence="CCATGTCGATGCTGC (sugars l3 d9 l3, PS)" reported="7.14 % of control"
biopolymer_sequence="GTAACCAACTTTCATC (sugars l3 d9 l4, PS)" reported="74.8 % of control"
biopolymer_sequence="TGTCGATGCTGCCG (sugars l3 d8 l3, PS)" reported="52.2 % of control"
biopolymer_sequence="TCGCGGAAGGTCAGCTTGTG (sugars l3 d14 l3, PS)" reported="20.3 % of control"
biopolymer_sequence="TCCAAAGCATCAAATCC (sugars l3 d11 l3, PS)" reported="85.5 % of control"
biopolymer_sequence="GAACTGGTTAGCCCTA (sugars l3 d10 l3, PS)" reported="79.9 % of control"
biopolymer_sequence="CCACACTTGGAGGTCACCTT (sugars l3 d14 l3, PS)" reported="4.52 % of control"
biopolymer_sequence="CAACTCTTAGCATCCACT (sugars l2 d14 l2, PS)" reported="51.6 % of control"
biopolymer_sequence="CTCCAATTTTAAACTTAAA (sugars l4 d11 l4, PS)" reported="70.2 % of control"
biopolymer_sequence="TTTATTTCCAAATTCACTTT (sugars ldlllddddddddddlldll, PS)" reported="83.1 % of control"
biopolymer_sequence="ACCACATTATCATCCATTC (sugars l2 d14 l3, PS)" reported="51.9 % of control"
biopolymer_sequence="CTTCTATTACTTGCAAT (sugars l4 d9 l4, PS)" reported="69 % of control"
biopolymer_sequence="CCAACTCTTTGAACACC (sugars l3 d12 l2, PS)" reported="75.5 % of control"
biopolymer_sequence="TCAGATTTAATTCTCAC (sugars l4 d9 l4, PS)" reported="50.7 % of control"
biopolymer_sequence="GGGACGTGGGTGATATTGTC (sugars l3 d14 l3, PS)" reported="0 % of control"
biopolymer_sequence="TGGCGACTTGTACACG (sugars l3 d10 l3, PS)" reported="70.6 % of control"
biopolymer_sequence="GTGTTTGATATTATCC (sugars l3 d10 l3, PS)" reported="46.7 % of control"
biopolymer_sequence="TCCCAAATTCCTCATAATCC (sugars l2 d16 l2, PS)" reported="64.5 % of control"
biopolymer_sequence="CCAATTAACCGAACTG (sugars l3 d10 l3, PS)" reported="55.2 % of control"
biopolymer_sequence="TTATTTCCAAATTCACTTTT (sugars l3 d14 l3, PS)" reported="≥ 200 % of control"
biopolymer_sequence="ATCTTAGGCTGGCCC (sugars l3 d9 l3, PS)" reported="50.6 % of control"
biopolymer_sequence="TCCCCACCCAAACTCCAA (sugars l2 d14 l2, PS)" reported="76.5 % of control"
biopolymer_sequence="CATCACCAAGTCCCAAA (sugars l2 d11 l4, PS)" reported="81 % of control"
biopolymer_sequence="CATCTACTTTCTGTCACC (sugars l2 d14 l2, PS)" reported="63.4 % of control"
biopolymer_sequence="TCTTCTAATATCCTTGC (sugars l3 d11 l3, PS)" reported="55.7 % of control"
biopolymer_sequence="TAGTAAACACCATCTCT (sugars l3 d10 l4, PS)" reported="71.4 % of control"
biopolymer_sequence="CTTTATTTCCAAATTCAC (sugars l5 d9 l4, PS)" reported="104 % of control"
biopolymer_sequence="TTACACCATCCAAGTC (sugars l4 d9 l3, PS)" reported="101 % of control"
